target: α-glucosidase (EC 3.2.1.20) from Saccharomyces cerevisiae (Saccharomyces cerevisiae); construct: purchased Sigma-Aldrich; assay: biochemical; conditions: IC50 Value α-Glucosidase, plasma irradiation time 0 min (control, parent EGCG)
pIC50: −log10 of the molar value.

Compound | pIC50
O=C(O[C@@H]1Cc2c(O)cc(O)cc2O[C@@H]1c1cc(O)c(O)c(O)c1)c1cc(O)c(O)c(O)c1 [EGCG, (−)-Epigallocatechin gallate, reference compound] | 4.01

* * *

molecular target: α-glucosidase (EC 3.2.1.20) from Saccharomyces cerevisiae (Saccharomyces cerevisiae, UniProt P53341); construct: purchased Sigma-Aldrich; test: biochemical; settings: IC50 Value α-Glucosidase, isolated compounds; triplicate; acarbose positive control
Sequence (P53341 whole entry): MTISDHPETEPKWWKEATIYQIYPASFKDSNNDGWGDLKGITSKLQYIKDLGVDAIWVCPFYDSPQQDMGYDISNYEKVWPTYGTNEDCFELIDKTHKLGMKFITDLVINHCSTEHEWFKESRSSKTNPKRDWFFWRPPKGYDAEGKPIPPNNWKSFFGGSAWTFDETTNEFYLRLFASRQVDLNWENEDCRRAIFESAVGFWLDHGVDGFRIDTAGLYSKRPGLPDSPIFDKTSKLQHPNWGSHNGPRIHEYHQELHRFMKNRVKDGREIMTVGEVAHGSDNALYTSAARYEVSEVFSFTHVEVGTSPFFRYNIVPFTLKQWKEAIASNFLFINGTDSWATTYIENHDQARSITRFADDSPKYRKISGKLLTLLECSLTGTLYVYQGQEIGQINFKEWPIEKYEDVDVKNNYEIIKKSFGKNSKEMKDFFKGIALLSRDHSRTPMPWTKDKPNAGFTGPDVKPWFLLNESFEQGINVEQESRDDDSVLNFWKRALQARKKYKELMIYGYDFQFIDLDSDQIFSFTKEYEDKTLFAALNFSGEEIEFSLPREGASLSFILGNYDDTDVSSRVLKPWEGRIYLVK
Listed molecules paired with reported IC50

Molecule | Value Units | Value Qualifier | IC50
O=C(O)c1cc(O)c(O)c(O)c1 [Compound 3, gallic acid] | µM | > | 300
O=C(O[C@@H]1Cc2c(O)cc(O)cc2O[C@@H]1c1cc(O)c(O)c(O)c1)c1cc(O)c(O)c(O)c1 [EGCG, (−)-Epigallocatechin gallate, reference compound] | µM | = | 97.2
O=C(O[C@@H]1Cc2c(O)cc(O)cc2O[C@@H]1C1=CC(=O)[C@]2(O)C(=O)c3c(cc(O)c(O)c3O)[C@H]12)c1cc(O)c(O)c(O)c1 [Compound 2, theacitrinin A] | µM | = | 20.7
